Kindly supply the reported Emax values for the records listed here.
- target_system: human AT1R (Homo sapiens, UniProt P30556)
- Sequence (P30556 whole entry): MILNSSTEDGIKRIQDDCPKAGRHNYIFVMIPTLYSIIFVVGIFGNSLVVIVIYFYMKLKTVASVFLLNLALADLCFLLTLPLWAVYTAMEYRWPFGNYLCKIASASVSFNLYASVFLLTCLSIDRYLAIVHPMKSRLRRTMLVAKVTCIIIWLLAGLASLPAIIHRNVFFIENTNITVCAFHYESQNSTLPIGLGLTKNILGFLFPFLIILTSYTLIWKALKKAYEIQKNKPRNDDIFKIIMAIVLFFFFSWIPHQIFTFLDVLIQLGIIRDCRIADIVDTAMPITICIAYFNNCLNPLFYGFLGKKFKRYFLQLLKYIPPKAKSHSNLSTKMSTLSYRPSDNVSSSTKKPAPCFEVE
- test_name: beta-arrestin2 recruitment assay (PathHunter), human AT1R
- Assay type: cell-based
- assay_conditions: 1 h, read-out: Span (relative to hAngII)
Where a SMILES comes first, the peptide text is derived from it. Bridges are numbered along the chain shown (N, C = ends). [ ]: non-standard residue; d: D form. The star is where a group is joined. Ac6c = NC1(C(=O)O)CCCCC1; NHCH2tBu = CC(C)(C)CN*; Aib = CC(C)(N)C(=O)O; Sar = CNCC(=O)O

Could you share which Emax value was measured for CNCC(=O)N[C@@H](CCCNC(=N)N)C(=O)N[C@H](C(=O)N[C@@H](Cc1ccc(O)cc1)C(=O)NC1(C(=O)N[C@@H](Cc2c[nH]cn2)C(=O)N2CCC[C@H]2C(=O)N[C@H](C(=O)O)C(C)C)CCCCC1)C(C)C [SEQ ID NO: 13, Sar-Arg-Val-Tyr-cyHex-His-Pro-Val] (H-[Sar]RVY[Ac6c]HPV-OH) ?
103%

Could you share which Emax value was measured for CNCC(=O)N[C@@H](CCCNC(=N)N)C(=O)N[C@H](C(=O)N[C@@H](Cc1ccc(O)cc1)C(=O)NC1(C(=O)N[C@@H](Cc2c[nH]cn2)C(=O)N2CCC[C@H]2C(=O)N[C@@H](Cc2ccc(O)cc2)C(=O)O)CCCCC1)C(C)C [SEQ ID NO: 55, Sar-Arg-Val-Tyr-cyHex-His-Pro-Tyr] (H-[Sar]RVY[Ac6c]HPY-OH) ?
< 101%

Could you share which Emax value was measured for CNCC(=O)N[C@@H](CCSC)C(=O)N[C@H](C(=O)N[C@@H](Cc1ccc(O)cc1)C(=O)NC1(C(=O)N[C@@H](Cc2c[nH]cn2)C(=O)N2CCC[C@H]2C(=O)N[C@@H](C)C(=O)O)CCCCC1)C(C)C [SEQ ID NO: 45, Sar-Met-Val-Tyr-cyHex-His-Pro-Ala] (H-[Sar]MVY[Ac6c]HPA-OH; N-terminus and C-terminus assumed) ?
< 101%

Could you share which Emax value was measured for CC[C@H](C)[C@@H]1NC(=O)[C@H](NC(=O)[C@@H](NC(=O)[C@H](CCCNC(=N)N)NC(=O)CNC)C(C)C)CSSC[C@@H](C(=O)N[C@H](C)C(=O)O)NC(=O)[C@H](Cc2c[nH]cn2)NC1=O [SEQ ID NO: 52, Sar-Arg-Val-D-Cys-Ile-His-Cys-D-Ala] (H-[Sar]RV[dC]IHC[dA]-OH; disulfide 4-7; N-terminus and C-terminus assumed) ?
< 101%

Could you share which Emax value was measured for `CNCC(=O)N[C@@H](CCCNC(=N)N)C(=O)N[C@H](C(=O)N[C@@H](Cc1ccc(O)cc1)C(=O)NC1(C(=O)N[C@@H](Cc2c[nH]cn2)C(=O)N2CCC[C@H]2C(=O)N[C@@H](C)C(=O)O)CCCCC1)C(C)C` ?
< 101%

Could you share which Emax value was measured for CNCC(=O)N[C@@H](CCCNC(=N)N)C(=O)N[C@H](C(=O)N[C@@H](Cc1ccc(O)cc1)C(=O)N1CCC[C@H]1C(=O)N[C@@H](Cc1c[nH]cn1)C(=O)N1CCC[C@H]1C(=O)N[C@H](C(=O)O)C(C)C)C(C)C [SEQ ID NO: 6, Sar-Arg-Val-Tyr-Pro-His-Pro-Val] (H-[Sar]RVYPHPV-OH; N-terminus and C-terminus assumed) ?
< 101%

Could you share which Emax value was measured for CNCC(=O)N[C@@H](CCCNC(=N)N)C(=O)N[C@H](C(=O)N[C@@H](Cc1ccc(O)cc1)C(=O)NC1(C(=O)N[C@@H](Cc2c[nH]cn2)C(=O)N2CCC[C@H]2C(=O)N[C@@H](Cc2ccccc2)C(=O)O)CCCCC1)C(C)C [SEQ ID NO: 17, Sar-Arg-Val-Tyr-cyHex-His-Pro-Phe] (H-[Sar]RVY[Ac6c]HPF-OH; N-terminus and C-terminus assumed) ?
> 101%

Could you share which Emax value was measured for CNCC(=O)N[C@@H](CCCNC(=N)N)C(=O)N[C@H](C(=O)N[C@@H](Cc1ccc(O)cc1)C(=O)NC(C)(C)C(=O)N[C@@H](Cc1c[nH]cn1)C(=O)N1CCC[C@H]1C(=O)N[C@H](C(=O)O)[C@@H](C)O)C(C)C [SEQ ID NO: 40, Sar-Arg-Val-Tyr-AA01-His-Pro-Thr] (H-[Sar]RVY[Aib]HPT-OH) ?
< 101%

Could you share which Emax value was measured for CNCC(=O)N[C@@H](CCCNC(=N)N)C(=O)N[C@H](C(=O)N[C@@H](Cc1ccc(O)cc1)C(=O)NC1(C(=O)N[C@@H](Cc2c[nH]cn2)C(=O)N2CCC[C@H]2C(=O)NC(C)(C)C(=O)O)CCCCC1)C(C)C [SEQ ID NO: 35, Sar-Arg-Val-Tyr-cyHex-His-Pro-AA01] (H-[Sar]RVY[Ac6c]HP[Aib]-OH) ?
< 101%

Could you share which Emax value was measured for CNCC(=O)N[C@@H](CCCNC(=N)N)C(=O)N[C@H](C(=O)N[C@@H](Cc1ccc(O)cc1)C(=O)NC1(C(=O)N[C@@H](Cc2c[nH]cn2)C(=O)N2CCC[C@H]2C(=O)NCC(C)(C)C)CCCCC1)C(C)C [SEQ ID NO: 47] (H-[Sar]RVY[Ac6c]HP-NHCH2tBu) ?
< 101%

Could you share which Emax value was measured for CNCC(=O)N[C@@H](CCCNC(=N)N)C(=O)N[C@H](C(=O)N[C@@H](Cc1ccc(O)cc1)C(=O)NC1(C(=O)N[C@@H](Cc2c[nH]cn2)C(=O)N2CCC[C@H]2C(=O)NCC(=O)O)CCCCC1)C(C)C [SEQ ID NO: 32, Sar-Arg-Val-Tyr-cyHex-His-Pro-Gly] (H-[Sar]RVY[Ac6c]HPG-OH) ?
< 101%

Could you share which Emax value was measured for CNCC(=O)N[C@@H](CCCNC(=N)N)C(=O)N[C@H](C(=O)N[C@@H](Cc1ccc(O)cc1)C(=O)N1CCC[C@H]1C(=O)N[C@@H](Cc1c[nH]cn1)C(=O)N1CCC[C@H]1C(=O)N[C@@H](CCSC)C(=O)O)C(C)C [SEQ ID NO: 9, Sar-Arg-Val-Tyr-Pro-His-Pro-Met] (H-[Sar]RVYPHPM-OH; N-terminus and C-terminus assumed) ?
< 101%

====

Kindly supply the reported Emax values for the records listed here.
- target_system: human AT1R (Homo sapiens, UniProt P30556)
- test_name: IP1 accumulation assay (IP1 G-protein assay), human AT1R
- Assay type: cell-based
- assay_conditions: read-out: Span (relative to hAngII)
Where a SMILES comes first, the peptide text is derived from it. [ ]: non-standard residue; d: D form. Ac6c = NC1(C(=O)O)CCCCC1; Ac5c = NC1(C(=O)O)CCCC1; Sar = CNCC(=O)O

Could you share which Emax value was measured for CC[C@H](C)[C@H](NC(=O)[C@@H]1CCCN1C(=O)[C@H](Cc1c[nH]cn1)NC(=O)C1(NC(=O)[C@H](Cc2ccc(O)cc2)NC(=O)[C@@H](NC(=O)[C@H](CCCNC(=N)N)NC(=O)CNC)C(C)C)CCCCC1)C(=O)O [SEQ ID NO: 11, Sar-Arg-Val-Tyr-cyHex-His-Pro-Ile] (H-[Sar]RVY[Ac6c]HPI-OH) ?
< 103%

Could you share which Emax value was measured for CNCC(=O)N[C@@H](CCCNC(=N)N)C(=O)N[C@H](C(=O)N[C@@H](Cc1ccc(O)cc1)C(=O)NC1(C(=O)N[C@@H](Cc2c[nH]cn2)C(=O)N2CCC[C@H]2C(=O)N[C@@H](Cc2ccccc2)C(=O)O)CCCC1)C(C)C [SEQ ID NO: 24, Sar-Arg-Val-Tyr-cyPen-His-Pro-Phe] (H-[Sar]RVY[Ac5c]HPF-OH) ?
> 103%

====

- target_system: rat AT1aR (Rattus norvegicus)
- Sequence (P25095 whole entry): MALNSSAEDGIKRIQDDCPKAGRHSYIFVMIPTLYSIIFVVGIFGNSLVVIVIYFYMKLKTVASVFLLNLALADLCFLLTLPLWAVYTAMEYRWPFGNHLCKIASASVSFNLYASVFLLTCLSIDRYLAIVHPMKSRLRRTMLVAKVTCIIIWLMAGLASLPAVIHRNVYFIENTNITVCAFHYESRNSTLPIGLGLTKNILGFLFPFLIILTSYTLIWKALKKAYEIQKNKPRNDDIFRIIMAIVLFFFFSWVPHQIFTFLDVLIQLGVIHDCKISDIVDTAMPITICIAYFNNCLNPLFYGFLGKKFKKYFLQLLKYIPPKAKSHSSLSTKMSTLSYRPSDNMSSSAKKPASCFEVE
- test_name: IP1 accumulation assay (IP1 G-protein assay), rat AT1aR
- Type: cell-based
- assay_conditions: read-out: Span (relative to hAngII)
- Method: A secondary measure of G protein coupling efficacy was also performed. IP3 is generated by activation of phospholipase C by Gα-q. IP3 is degraded to IP1, which can be forced to accumulate in cells by blocking degradation with lithium chloride. Thus we measured accumulation of IP1 to determine ligand efficacy for G protein activation. […]
Where a SMILES comes first, the peptide text is derived from it. [ ]: non-standard residue; d: D form. Ac6c = NC1(C(=O)O)CCCCC1; Ac5c = NC1(C(=O)O)CCCC1; Sar = CNCC(=O)O
assay_endpoint: Emax

Could you share which Emax value was measured for CNCC(=O)N[C@@H](CCCNC(=N)N)C(=O)N[C@H](C(=O)N[C@@H](Cc1ccc(O)cc1)C(=O)NC1(C(=O)N[C@@H](Cc2c[nH]cn2)C(=O)N2CCC[C@H]2C(=O)N2CCC[C@H]2C(=O)O)CCCCC1)C(C)C [SEQ ID NO: 39, Sar-Arg-Val-Tyr-cyHex-His-Pro-Pro] (H-[Sar]RVY[Ac6c]HPP-OH) ?
< 104%

Could you share which Emax value was measured for CNCC(=O)N[C@@H](CCCNC(=N)N)C(=O)N[C@H](C(=O)N[C@@H](Cc1ccc(O)cc1)C(=O)NC1(C(=O)N[C@@H](Cc2c[nH]cn2)C(=O)N2CCC[C@H]2C(=O)N[C@H](C(=O)O)[C@@H](C)O)CCCC1)C(C)C [SEQ ID NO: 21, Sar-Arg-Val-Tyr-cyPen-His-Pro-Thr] (H-[Sar]RVY[Ac5c]HPT-OH) ?
< 104%

Could you share which Emax value was measured for CNCC(=O)N[C@@H](CCCNC(=N)N)C(=O)N[C@H](C(=O)N[C@@H](Cc1ccc(O)cc1)C(=O)N1CCC[C@H]1C(=O)N[C@@H](Cc1c[nH]cn1)C(=O)N1CCC[C@H]1C(=O)N[C@@H](CCSC)C(=O)O)C(C)C [SEQ ID NO: 9, Sar-Arg-Val-Tyr-Pro-His-Pro-Met] (H-[Sar]RVYPHPM-OH; N-terminus and C-terminus assumed) ?
< 104%
